Provenance of the data: the supplement of paper PMC4466140

Target: AgHse1
Test: SPOT peptide array binding signal intensity (averaged, normalized) (arbitrary units (background-subtracted, floor 0; scale differs between SH3 domains)); higher = stronger binding of the SH3 domain to the peptide
measured property: SPOT peptide array binding signal intensity
The response must contain the number and no unit.

// known answers, use as guide
binder	value
SNRRPVPRRPSQPLN	18.2
AIPPPVPNRPGGTTN	13
LLLLFVPDSPYDPAI	277

Could you now look at the following binder, please?
Task item: Query (binder): STKKPRPPVKSKPKH ; field requested: SPOT peptide array binding signal intensity
Reply: 71.5
